# System: Blattella germanica (cockroach nymphs)
# test_name: Residual test, cockroach nymphs (BG), Plastic pot
# Type: in vivo
# test_settings: 72 h, 500 ppm, 3 days, read-out: BG grading of mortality
result_type: mortality at 500 ppm

[[record]]
molecule = "CCOc1ccc(C(CCC(C#N)c2cccc(Oc3ccccc3)c2)C(F)(F)F)cc1 (racemic)"
result_type = "mortality at 500 ppm"
meas_value = "< 50%"

[[record]]
molecule = "CCOc1ccc(C(CCCc2cccc(Oc3ccccc3)c2)C(F)(F)F)cc1F (racemic)"
result_type = "mortality at 500 ppm"
meas_value = "80 to 100%"

[[record]]
molecule = "Fc1ccc(CCCC(c2ccc(OC(F)(F)F)cc2)C(F)F)cc1Oc1ccccc1 (racemic)"
result_type = "mortality at 500 ppm"
meas_value = "80 to 100%"

[[record]]
molecule = "CCOc1ccc(C(=CCCc2cccc(Oc3ccccc3)c2)C(F)(F)F)cc1"
result_type = "mortality at 500 ppm"
meas_value = "80 to 100%"

[[record]]
molecule = "FC(F)C(F)(F)Oc1ccc(C(CCCc2cccc(Oc3ccccc3)c2)C(F)(F)F)cc1 (racemic)"
result_type = "mortality at 500 ppm"
meas_value = "80 to 100%"

[[record]]
molecule = "CCOc1ccc(C(CCCc2c(F)c(F)c(F)c(F)c2F)C(F)(F)F)cc1 (racemic)"
result_type = "mortality at 500 ppm"
meas_value = "50 to 79%"

[[record]]
molecule = "COCc1ccc(C(=CCCc2cccc(Oc3ccccc3)c2)C(F)(F)F)cc1"
result_type = "mortality at 500 ppm"
meas_value = "< 50%"

[[record]]
molecule = "CCOc1ccc(C(CC=Cc2cccc(Oc3ccccc3)n2)C(F)(F)F)cc1 (centres unmarked)"
result_type = "mortality at 500 ppm"
meas_value = "< 50%"

[[record]]
molecule = "Fc1ccc(CCCC(c2ccc(OC(F)(F)F)cc2)C(F)(F)F)cc1Cc1ccccc1 (centres unmarked)"
result_type = "mortality at 500 ppm"
meas_value = "80 to 100%"

[[record]]
molecule = "FC(F)(F)C(CCCc1cccc(Oc2ccccc2)c1)c1ccc(Cl)cc1 (racemic)"
result_type = "mortality at 500 ppm"
meas_value = "50 to 79%"

[[record]]
molecule = "Fc1cc(Br)c(C(=CC=Cc2cccc(Oc3ccccc3)c2)C(F)(F)F)c(F)c1OC(F)(F)F"
result_type = "mortality at 500 ppm"
meas_value = "< 50%"

[[record]]
molecule = "CCOc1c(F)cc(C(=CC=Cc2ccc(F)c(Oc3ccccc3)c2)C(F)(F)F)cc1F"
result_type = "mortality at 500 ppm"
meas_value = "< 50%"

[[record]]
molecule = "CCOc1ccc(C(CCCc2cccc(Oc3ccccc3)c2)C(F)(F)Cl)cc1 (racemic)"
result_type = "mortality at 500 ppm"
meas_value = "80 to 100%"

[[record]]
molecule = "CCOc1ccc(C(CCCc2cccc(Oc3ccccc3)n2)C(F)(F)F)cc1 (centres unmarked)"
result_type = "mortality at 500 ppm"
meas_value = "80 to 100%"

[[record]]
molecule = "CCOc1ccc(/C(=C/CCc2cccc(Oc3ccccc3)c2)C(F)(F)F)cc1"
result_type = "mortality at 500 ppm"
meas_value = "< 50%"

[[record]]
molecule = "CCOc1ccc(C(CC=Cc2c(F)c(F)c(F)c(F)c2F)C(F)(F)F)cc1 (centres unmarked)"
result_type = "mortality at 500 ppm"
meas_value = "< 50%"

[[record]]
molecule = "FC(F)(F)Oc1ccc(C(=CC=Cc2cccc(Oc3ccccc3)c2)C(F)(F)Cl)cc1"
result_type = "mortality at 500 ppm"
meas_value = "< 50%"

[[record]]
molecule = "Fc1ccc(C=CC=C(c2ccc(OC(F)(F)F)cc2)C(F)(F)Cl)cc1Oc1ccccc1"
result_type = "mortality at 500 ppm"
meas_value = "< 50%"

[[record]]
molecule = "Fc1cc(C(=CC=Cc2cccc(Oc3ccccc3)c2)C(F)(F)F)cc(F)c1OC(F)(F)F"
result_type = "mortality at 500 ppm"
meas_value = "< 50%"

[[record]]
molecule = "COCc1ccc(C(CCCc2cccc(Oc3ccccc3)c2)C(F)(F)F)cc1 (racemic)"
result_type = "mortality at 500 ppm"
meas_value = "< 50%"

[[record]]
molecule = "CCOc1ccc(C(=CC=Cc2ccc(F)c(Cc3ccccc3)c2)C(F)(F)F)cc1"
result_type = "mortality at 500 ppm"
meas_value = "< 50%"

[[record]]
molecule = "CCOc1ccc(C(=CC=Cc2cccc(Oc3ccccc3)n2)C(F)(F)F)cc1"
result_type = "mortality at 500 ppm"
meas_value = "< 50%"

[[record]]
molecule = "FC(F)(F)C(CCCc1cccc(Oc2ccccc2)c1)c1ccc2c(c1)OCO2 (centres unmarked)"
result_type = "mortality at 500 ppm"
meas_value = "50 to 79%"


---

Recorded measurements of mortality at 250 ppm, one per entry
# Tested on: Tetranychus urticae (spider mites - adult)
# test_name: Contact test, spider mites - adult (TUa), French bean leaf
# Format: in vivo
# test_settings: 72 h, 250 ppm, 3 days, read-out: TUA grading of mortality
result_type: mortality at 250 ppm

[[record]]
compound = "FC(F)(F)Oc1ccc(C(=CCCc2cccc(Oc3ccccc3)c2)C(F)(F)F)cc1 [Compound 7]"
result_type = "mortality at 250 ppm"
meas_value = "80 to 100%"

[[record]]
compound = "CCOc1ccc(C(CCCc2cccc(Oc3ccccc3)c2)C(F)(F)C(F)(F)F)cc1 (racemic) [Compound 11]"
result_type = "mortality at 250 ppm"
meas_value = "< 50%"

[[record]]
compound = "CCOc1ccc(/C(=C\\C=C\\c2ccc(F)c(Oc3ccccc3)c2)C(F)(F)F)cc1 [Compound 36]"
result_type = "mortality at 250 ppm"
meas_value = "< 50%"

[[record]]
compound = "CCOc1ccc(/C(=C\\C=C/c2ccc(F)c(Oc3ccccc3)c2)C(F)(F)F)cc1 [Compound 37]"
result_type = "mortality at 250 ppm"
meas_value = "< 50%"


---

Recorded measurements of mortality at 500 ppm, one per entry
# Test system: Blattella germanica (cockroach nymphs)
# test_name: Residual test, cockroach nymphs (BG), Plastic pot
# Assay type: in vivo
# test_settings: 72 h, 500 ppm, 3 days, read-out: BG grading of mortality
result_type: mortality at 500 ppm

[[record]]
molecule = "OC(CCCc1cccc(Oc2ccccc2)c1)(c1ccc(OC(F)(F)F)cc1)C(F)(F)F (racemic) [Compound 59]"
meas_value = "< 50%"

[[record]]
molecule = "FC(F)(F)C(=CCCc1cccc(Oc2ccccc2)c1)c1ccc(Br)cc1 [Compound 39]"
meas_value = "50 to 79%"

[[record]]
molecule = "CCOc1c(F)cc(C(CCCc2ccc(F)c(Oc3ccccc3)c2)C(F)(F)F)cc1F (racemic) [Compound 64]"
meas_value = "80 to 100%"

[[record]]
molecule = "FC(F)C(CCCc1cccc(Oc2ccccc2)c1)c1ccc(OC(F)(F)F)cc1 (racemic) [Compound 83]"
meas_value = "80 to 100%"


---

# Tested on: Tetranychus urticae (spider mites - ova)
# test_name: Contact test, spider mites - ova (TUe), French bean leaf
# Format: in vivo
# test_settings: 144 h, 500 ppm, 6 days, read-out: TUE grading of mortality
result_type: mortality at 500 ppm

[[record]]
compound = "COCc1ccc(C(CCCc2cccc(Oc3ccccc3)c2)C(F)(F)F)cc1 (racemic)"
meas_value = "< 50%"

[[record]]
compound = "Fc1cc(C(CCCc2cccc(Oc3ccccc3)c2)C(F)(F)F)cc(F)c1OC(F)(F)F (racemic)"
meas_value = "< 50%"

[[record]]
compound = "FC(F)C(CCCc1cccc(Oc2ccccc2)c1)c1ccc(OC(F)(F)F)cc1 (racemic)"
meas_value = "80 to 100%"

[[record]]
compound = "COc1ccc(C(=CCCc2cccc(Oc3ccccc3)c2)C(F)(F)F)cc1"
meas_value = "< 50%"

[[record]]
compound = "Fc1cc(Br)c(C(=CC=Cc2cccc(Oc3ccccc3)c2)C(F)(F)F)c(F)c1OC(F)(F)F"
meas_value = "< 50%"

[[record]]
compound = "FC(F)(F)C(CCCc1cccc(Oc2ccccc2)c1)c1ccc2c(c1)OCO2 (stereo not shown)"
meas_value = "< 50%"

[[record]]
compound = "FC(F)(F)Oc1ccc(C(=CC=Cc2cccc(Oc3ccccc3)c2)C(F)(F)Cl)cc1"
meas_value = "< 50%"

[[record]]
compound = "CCOc1ccc(C(CCCc2cccc(Oc3ccccc3)c2)C(F)F)cc1 (racemic)"
meas_value = "< 50%"

[[record]]
compound = "Fc1ccc(CCCC(c2ccc(OC(F)(F)F)cc2)C(F)(F)F)cc1Cc1ccccc1 (stereo not shown)"
meas_value = "80 to 100%"

[[record]]
compound = "Fc1ccc(CCCC(c2ccc(OC(F)(F)F)cc2)C(F)F)cc1Oc1ccccc1 (racemic)"
meas_value = "< 50%"

[[record]]
compound = "Fc1ccc(C=CC=C(c2ccc(OC(F)(F)F)cc2)C(F)F)cc1Oc1ccccc1"
meas_value = "< 50%"

[[record]]
compound = "CCOc1ccc(C(CCCc2cccc(Oc3ccccc3)n2)C(F)(F)F)cc1 (stereo not shown)"
meas_value = "< 50%"

[[record]]
compound = "CCOc1ccc(C(CCC(C)c2cccc(Oc3ccccc3)c2)C(F)(F)F)cc1 (racemic)"
meas_value = "< 50%"

[[record]]
compound = "CCOc1ccc(/C(=C\\CCc2cccc(Oc3ccccc3)c2)C(F)(F)F)cc1"
meas_value = "< 50%"

[[record]]
compound = "CCOc1ccc(C(CCCc2ccc(F)c(Cc3ccccc3)c2)C(F)(F)F)cc1 (racemic)"
meas_value = "80 to 100%"

[[record]]
compound = "Fc1ccc(C(CCCc2cccc(Oc3ccccc3)c2)C(F)(F)F)c(F)c1OC(F)(F)F (racemic)"
meas_value = "< 50%"

